Experiment: Aqueous solubility of paclitaxel with PEHAM dendritic polymer (HPLC)
Format: physicochemical
Conditions: DI water without dendrimer, thermodynamic from solid
Description: The sample was subjected to brief ultrasonication and heating at 50° C. for 10 mins., followed by overnight shaking at RT. The sample was then centrifuged for 5 mins. and the paclitaxel content measured by HPLC.
experimental_readout: solubility
Write the figure, then the unit, nothing else.

// solubility lookup, compound = CC(=O)O[C@H]1C(=O)[C@@]2(C)[C@H]([C@H](OC(=O)c3ccccc3)[C@]3(O)C[C@H](OC(=O)[C@H](O)[C@@H](NC(=O)c4ccccc4)c4ccccc4)C(C)=C1C3(C)C)[C@]1(OC(C)=O)CO[C@@H]1C[C@@H]2O [paclitaxel] , result: 0.3 µg/mL
